assay-overview: RRCK permeability
particulars: MDCK
Where a SMILES comes first, the peptide text is derived from it. [ ]: non-standard residue; d: D form. NMeY = CN[C@@H](Cc1ccc(O)cc1)C(=O)O; dNMeL = CN[C@H](CC(C)C)C(=O)O; NMeS = CN[C@@H](CO)C(=O)O; NMeA = CN[C@@H](C)C(=O)O
Kindly supply the reported recovery values for the records listed here.
Numbers only, in %.

Data request: Given the compound CC(C)C[C@@H]1NC(=O)[C@H](Cc2ccc(O)cc2)N(C)C(=O)[C@H]2CCCN2C(=O)[C@H](CC(C)C)NC(=O)[C@H](C)N(C)C(=O)[C@@H](CC(C)C)N(C)C1=O [Compound 5] (cyclo(L[dNMeL][NMeA]L[dP][NMeY])) , what is its reported recovery?
Data returned: 47.1

We now examine a further compound.
Data request: Given the compound CC(C)C[C@@H]1NC(=O)[C@H](Cc2ccc(O)cc2)N(C)C(=O)[C@H]2CCCN2C(=O)[C@H](CC(C)C)NC(=O)[C@H](CO)N(C)C(=O)[C@@H](CC(C)C)N(C)C1=O [Compound 2] (cyclo(L[dNMeL][NMeS]L[dP][NMeY])) , what is its reported recovery?
Data returned: 84.3

====

assay-overview: RRCK permeability
particulars: dog, MDCK
Where a SMILES comes first, the peptide text is derived from it. [ ]: non-standard residue; d: D form. NMeY = CN[C@@H](Cc1ccc(O)cc1)C(=O)O; NMeLys(Me) = CNCCCC[C@H](NC)C(=O)O; NMeD = CN[C@@H](CC(=O)O)C(=O)O; dNMeL = CN[C@H](CC(C)C)C(=O)O
Kindly supply the reported Papp A→B values for the records listed here.
Numbers only, in ×10⁻⁶ cm/s.

Give me Papp A→B for each of these molecules, listed below.
1. CNCCCC[C@H]1C(=O)N[C@@H](CC(C)C)C(=O)N2CCC[C@@H]2C(=O)N(C)[C@@H](Cc2ccc(O)cc2)C(=O)N[C@@H](CC(C)C)C(=O)N(C)[C@H](CC(C)C)C(=O)N1C [Compound 11] (cyclo(L[dNMeL][NMeLys(Me)]L[dP][NMeY]))
2. CC(C)C[C@@H]1NC(=O)[C@H](Cc2ccc(O)cc2)N(C)C(=O)[C@H]2CCCN2C(=O)[C@H](CC(C)C)NC(=O)[C@H](CC(=O)O)N(C)C(=O)[C@@H](CC(C)C)N(C)C1=O [Compound 9] (cyclo(L[dNMeL][NMeD]L[dP][NMeY]))

Data returned:
0.234
0.457

====

Kindly supply the reported log Papp(RRCK) values for the records listed here.
Tested on: RRCK (Ralph Russ canine kidney cell line)
assay-overview: RRCK permeability
particulars: MDCK
Where a SMILES comes first, the peptide text is derived from it. [ ]: non-standard residue; d: D form. The star is where a group is joined. NMeAbu(4-morpholino) = CN[C@@H](CCN1CCOCC1)C(=O)O; NMeY = CN[C@@H](Cc1ccc(O)cc1)C(=O)O; NMeT = CN[C@H](C(=O)O)[C@@H](C)O; NMeD = CN[C@@H](CC(=O)O)C(=O)O; dNMeL = CN[C@H](CC(C)C)C(=O)O; NMeK = CN[C@@H](CCCCN)C(=O)O; NMeA = CN[C@@H](C)C(=O)O; Piperidide = C1CCN(*)CC1
One number for each entry.

# annotated cases, reported log Papp(RRCK) shown
Data request: Given the compound CC(C)C[C@@H]1NC(=O)[C@H](Cc2ccc(O)cc2)N(C)C(=O)[C@H]2CCCN2C(=O)[C@H](CC(C)C)NC(=O)[C@H](CCCCN)N(C)C(=O)[C@@H](CC(C)C)N(C)C1=O [Compound 10] (cyclo(L[dNMeL][NMeK]L[dP][NMeY])) , what is its reported log Papp(RRCK)?
Data returned: −6.56

Data request: Given the compound CC(C)C[C@@H]1NC(=O)[C@H](Cc2ccc(O)cc2)N(C)C(=O)[C@H]2CCCN2C(=O)[C@H](CC(C)C)NC(=O)[C@H](Cc2ccc(O)cc2)N(C)C(=O)[C@@H](CC(C)C)N(C)C1=O [Compound 6] (cyclo(L[dNMeL][NMeY]L[dP][NMeY])) , what is its reported log Papp(RRCK)?
Data returned: −5.88

Data request: Given the compound CC(C)C[C@@H]1NC(=O)[C@H](Cc2ccc(O)cc2)N(C)C(=O)[C@H]2CCCN2C(=O)[C@H](CC(C)C)NC(=O)[C@H](CCN2CCOCC2)N(C)C(=O)[C@@H](CC(C)C)N(C)C1=O [Compound 15] (cyclo(L[dNMeL][NMeAbu(4-morpholino)]L[dP][NMeY])) , what is its reported log Papp(RRCK)?
Data returned: −5.92

Data request: Given the compound CC(C)C[C@@H]1NC(=O)[C@H](Cc2ccc(O)cc2)N(C)C(=O)[C@H]2CCCN2C(=O)[C@H](CC(C)C)NC(=O)[C@H](CC(=O)N2CCCCC2)N(C)C(=O)[C@@H](CC(C)C)N(C)C1=O [Compound 14] (cyclo(L[dNMeL][NMeD](Piperidide)L[dP][NMeY])) , what is its reported log Papp(RRCK)?
Data returned: −5.84

Data request: Given the compound CC(C)C[C@@H]1NC(=O)[C@H](Cc2ccc(O)cc2)N(C)C(=O)[C@H]2CCCN2C(=O)[C@H](CC(C)C)NC(=O)[C@H]([C@@H](C)O)N(C)C(=O)[C@@H](CC(C)C)N(C)C1=O [Compound 3] (cyclo(L[dNMeL][NMeT]L[dP][NMeY])) , what is its reported log Papp(RRCK)?
Data returned: −5.33

We now examine a further compound.
Data request: Given the compound CC(C)C[C@@H]1NC(=O)[C@H](Cc2ccc(O)cc2)N(C)C(=O)[C@H]2CCCN2C(=O)[C@H](CC(C)C)NC(=O)[C@H](C)N(C)C(=O)[C@@H](CC(C)C)N(C)C1=O [Compound 5] (cyclo(L[dNMeL][NMeA]L[dP][NMeY])) , what is its reported log Papp(RRCK)?
Data returned: −5.26
